Source listed as paper doi:10.1101/2025.10.03.680225.

# ASSAYED_SYSTEM: GAPDH-K215E (UniProt P04406 1-335, K215E)
# Sequence (P04406 whole entry K215E): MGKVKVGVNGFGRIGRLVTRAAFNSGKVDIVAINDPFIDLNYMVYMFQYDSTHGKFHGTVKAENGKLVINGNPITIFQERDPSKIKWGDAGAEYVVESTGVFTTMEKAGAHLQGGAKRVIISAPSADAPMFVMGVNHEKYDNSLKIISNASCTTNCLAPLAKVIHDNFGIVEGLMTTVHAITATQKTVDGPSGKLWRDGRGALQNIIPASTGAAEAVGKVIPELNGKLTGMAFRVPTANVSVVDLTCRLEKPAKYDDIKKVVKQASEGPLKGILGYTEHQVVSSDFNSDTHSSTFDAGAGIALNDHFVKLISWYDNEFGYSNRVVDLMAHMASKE
# ASSAY_DETAILS: fluorescence anisotropy
MEASURE_NAME: Kd

1. AAAAAAAAAAAAAAAAAAAA (ssRNA) [20A-RNA]    3.1 µM
